- System: JAK1-dependent STAT6 phosphorylation in BEAS-2B human bronchial epithelial cells
- ASSAY_METHOD_TEXT: JAK1 pathway assay: IL-13 stimulated STAT6 phosphorylation in BEAS-2B cells
- Type: cell-based
- CONDITIONS: Homo sapiens, BEAS-2B, BEAS-2B cells, IL-13 stimulation; read-out: IL-13 p-STAT6 BEAS-2B IC50
OUTCOME_MEASURE: pIC50
Give bare numbers, as −log10 of the molar value.

O=C(Nc1cn(CC(=O)N2CC=CCC2)nc1-c1cc2c(cc1OC(F)F)NCCS2)c1cnn2cccnc12 [Example 50]; 8.00
O=C(Nc1cn(CC(=O)N2CC(F)(F)C2)nc1-c1cc2c(cc1OC(F)F)NCCO2)c1cnn2cccnc12 [Example 138]; 7.44

# return pIC50 for each item in the list
1. CN1CCC[C@@H]1Cn1cc(NC(=O)c2cnn3cccnc23)c(-c2cc3cn[nH]c3cc2OC(F)F)n1 [Example 77]
2. CC1Sc2cc(-c3n[nH]cc3NC(=O)c3cnn4cccnc34)c(OC(F)F)cc2NC1=O (single isomer, unassigned) [Example 95]
3. C[C@@H]1CNc2cc(OC(F)F)c(-c3nn(CC(=O)N4CCC(CN5CCOCC5)CC4)cc3NC(=O)c3cnn4cccnc34)cc2S1 [Example 46]
4. COC(=O)c1cc2cc(OC(F)F)c(-c3n[nH]cc3NC(=O)c3cnn4cccnc34)cc2s1 [Example 7]

Output line:
1. 8.05
2. 7.22
3. 7.51
4. 8.22

Input line: Please state recorded pIC50 (tested on JAK1-dependent STAT6 phosphorylation in BEAS-2B human bronchial epithelial cells) of O=C(Nc1c[nH]nc1-c1cc2c(cc1OC(F)F)SCCO2)c1cnn2cccnc12 [Example 151]
Output line: 7.52

---

- EXPERIMENTAL_SYSTEM: isolated recombinant JAK1 kinase domain (Homo sapiens (Human))
- Sequence (P23458 875-1153): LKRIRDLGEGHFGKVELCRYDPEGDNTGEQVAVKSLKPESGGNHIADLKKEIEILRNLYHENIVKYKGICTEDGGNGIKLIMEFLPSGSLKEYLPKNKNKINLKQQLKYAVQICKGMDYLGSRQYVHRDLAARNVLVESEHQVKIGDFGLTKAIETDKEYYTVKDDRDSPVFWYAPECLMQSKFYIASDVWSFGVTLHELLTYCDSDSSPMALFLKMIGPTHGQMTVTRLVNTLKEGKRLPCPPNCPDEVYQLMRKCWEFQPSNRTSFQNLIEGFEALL
- ASSAY_METHOD_TEXT: JAK1 enzyme assay (Caliper LabChip, Ki)
- Type: biochemical
Provide the reported pKi of each item.
One number for each entry, as −log10 of the molar value.

// solved cases for pKi follow
O=C(Nc1c[nH]nc1-c1cc2sncc2cc1OC(F)F)c1cnn2cccnc12 [Example 152]; 10.00
O=C(Nc1c[nH]nc1-c1cc2c(cc1OC(F)F)CCO2)c1cnn2cccnc12 [Example 16]; 9.68

I have 6 molecules here; please give me pKi for each one.
1. O=C(Nc1c[nH]nc1-c1cc2c(cc1OC(F)F)CC(CO)O2)c1cnn2cccnc12 (racemic) [Example 15]
2. CC1CNc2cc(OC(F)F)c(-c3nn(CC(=O)N4CCCCC4)cc3NC(=O)c3cnn4cccnc34)cc2S1 (single isomer, unassigned) [Example 101]
3. CC1CNc2cc(OC(F)F)c(-c3nn(CC(=O)N4CC=CCC4)cc3NC(=O)c3cnn4cccnc34)cc2S1 (single isomer, unassigned) [Example 103]
4. COC(=O)Cn1cc(NC(=O)c2cnn3cccnc23)c(-c2cc3sc(C#N)cc3cc2OC(F)F)n1 [Example 19]
5. COc1cc2[nH]ncc2cc1-c1n[nH]cc1NC(=O)c1cnn2cccnc12 [Example 30]
6. O=C(Nc1c[nH]nc1-c1cc2ccccc2cc1OC(F)F)c1cnn2cccnc12 [Example 1]

Output line:
1. 9.16
2. 9.64
3. 9.70
4. 9.52
5. 9.52
6. 9.51

Report pKi for each item below.
1. O=C(Nc1c[nH]nc1-c1cc2c(cc1OC(F)F)OCCO2)c1cnn2cccnc12 [Example 150]
2. Cn1cc(NC(=O)c2cnn3cccnc23)c(-c2cc3c(cc2OC(F)F)NC(=O)CS3)n1 [Example 90]
3. O=C(Nc1cn(CC(=O)N2CCC(F)(F)C2)nc1-c1cc2c(cc1OC(F)F)NCCO2)c1cnn2cccnc12 [Example 132]
4. CC1CSc2cc(-c3nn(CC(=O)N(C)C)cc3NC(=O)c3cnn4cccnc34)c(OC(F)F)cc2N1 (single isomer, unassigned) [Example 114]
5. O=C(Nc1cn(CC(=O)N2CCC(CN3CCOCC3)CC2)nc1-c1cc2c(cc1OC(F)F)NCCS2)c1cnn2cccnc12 [Example 59]

Output line:
1. 8.78
2. 10.15
3. 9.44
4. 9.68
5. 9.66

Required: pKi, one value per molecule below.
1. COc1cc2ccsc2cc1-c1nn(CC(=O)N2CCC(N3CCOCC3)CC2)cc1NC(=O)c1cnn2cccnc12 [Example 54]
2. O=C(Nc1cn(CC(=O)N2CCC(N3CCOCC3)CC2)nc1-c1cc2ccccc2cc1OC(F)F)c1cnn2cccnc12 [Example 57]

Output line:
1: 9.04; 2: 9.25
